Origin of measurements: patent US10314820B2

As shown below, each of these compounds has a reported cytotoxicity cell line H value.
# Tested on: Human hepatocytes (HepaRG cells)
# test_summary: Human cytotoxicity assay in vitro (CellTiter-Glo), hepatocytes
# Assay type: cell-based
# condition_set: hepatocyte cytotoxicity score; 24 h exposure
// keep it numeric: no unit symbol after the value

# count of solved cases: 2
{"smiles_representation": "FC(F)(F)Oc1ccccc1-c1ccc(-c2nc(-c3ccc(Cl)cc3Cl)c[nH]2)o1", "measurement_name": "cytotoxicity cell line H", "reported_value": 2}
{"smiles_representation": "Cc1nc(-c2ccc(-c3ccc(Cl)cc3Cl)o2)[nH]c1-c1ccc(F)cc1", "measurement_name": "cytotoxicity cell line H", "reported_value": 3}

Retrieve cytotoxicity cell line H on Human hepatocytes (HepaRG cells); query Cc1[nH]c(-c2ccc(-c3ccccc3OC(F)(F)F)o2)nc1-c1ccc(Cl)cc1 2

Find cytotoxicity cell line H for Cc1ccccc1-c1cnc(-c2ccc(-c3ccccc3C(F)(F)F)o2)[nH]1 on Human hepatocytes (HepaRG cells) and write it down. 2

With Human hepatocytes (HepaRG cells) as the test system, provide measured cytotoxicity cell line H for this compound: Cc1[nH]c(-c2ccc(-c3ccc(C(F)(F)F)c(Cl)c3)o2)nc1-c1ccc(F)cc1 3

Report the value of cytotoxicity cell line H obtained on Human hepatocytes (HepaRG cells) for Cc1[nH]c(-c2cc(C)n(-c3ccc(Cl)cc3)c2C)nc1-c1ccccc1 . 2

* * *

# Tested on: Human hepatocytes (HepaRG cells)
# test_summary: Human cytotoxicity assay in vitro (CellTiter-Glo), hepatocytes
# Assay type: cell-based
# condition_set: hepatocyte cytotoxicity score; 24 h exposure
measurement_name: cytotoxicity cell line H

Sample answers from the record:
{"smiles_representation": "Cc1nc(-c2ccc(-c3ccccc3C(F)(F)F)o2)[nH]c1-c1ccccc1Cl", "measurement_name": "cytotoxicity cell line H", "reported_value": 3}
{"smiles_representation": "Cc1ccccc1-c1c[nH]c(-c2ccc(-c3ccccc3OC(F)(F)F)o2)n1", "measurement_name": "cytotoxicity cell line H", "reported_value": 3}

Next compound, please.
Indicate its recorded cytotoxicity cell line H; the compound in question is FC(F)(F)c1ccccc1-c1ccc(-c2nc(Cl)c(-c3ccccc3)[nH]2)o1 2

* * *

# Tested on: Human hepatocytes (HepaRG cells)
# test_summary: Human cytotoxicity assay in vitro (CellTiter-Glo), hepatocytes
# Type: cell-based
# condition_set: hepatocyte cytotoxicity score; 24 h exposure
measurement_name: cytotoxicity cell line H
Simply state the number, no unit and no words.

{"smiles_representation": "Cc1[nH]c(-c2cc(C)n(-c3ccc(F)cc3F)c2C)nc1-c1ccccc1", "cytotoxicity cell line H": 3}

Here is the next item to consider.
Consider the compound CN(C)Cc1[nH]c(-c2ccc(-c3ccccc3C(F)(F)F)o2)nc1-c1ccccc1 . State its measured cytotoxicity cell line H. 3

* * *

# Test system: Human hepatocytes (HepaRG cells)
# test_summary: Human cytotoxicity assay in vitro (CellTiter-Glo), hepatocytes
# Assay type: cell-based
# condition_set: hepatocyte cytotoxicity score; 24 h exposure
measurement_name: cytotoxicity cell line H

Field: example entries. Status: answers known.
{"smiles_representation": "FC(F)(F)Oc1ccccc1-c1ccc(-c2nc(-c3ccccc3Cl)c[nH]2)o1", "measurement_name": "cytotoxicity cell line H", "reported_value": 2}
{"smiles_representation": "Cc1[nH]c(-c2ccc(-c3ccccc3OC(F)(F)F)o2)nc1Cc1ccc(Br)cc1", "measurement_name": "cytotoxicity cell line H", "reported_value": 3}

Please turn your attention to the following entry.
Identify cytotoxicity cell line H associated with the molecule Cc1nc(-c2ccc(-c3cccc(OC(F)(F)F)c3)o2)[nH]c1-c1ccc(F)cc1 3
